System: TDF
Test: H1.0 immunofluorescence intensity relative to DMSO (% of DMSO); higher = stronger H1.0 induction, active = 120 or more
Details: concentration: 10 µM; 24 h
Would you mind labelling by H1.0 immunofluorescence intensity? At or over 100 is condition met, under is condition not met.

Completed entries (count: 3):
{"COMPOUND": "C=C(C)C1CCC2(C(=O)O)CCC3(C)C(CCC4C5(C)CCC(O)C(C)(C)C5CCC43C)C12 (centres undefined)", "GROUP_LABEL": "condition not met"}
{"COMPOUND": "CCCCCC(O)C=CC1C(O)CC(O)C1CC=CCCCC(=O)O (centres undefined) [Dinoprost]", "GROUP_LABEL": "condition not met"}
{"COMPOUND": "CCN(CC)CCNC(=O)c1cc(S(C)(=O)=O)ccc1OC.Cl [Tiapride hydrochloride]", "GROUP_LABEL": "condition not met"}

Field: next compound
Query block: Hello, I need to know if CSC(=N)N.CSC(=N)N.O=S(=O)(O)O [S-Methylisothiourea hemisulfate] has measured H1.0 immunofluorescence intensity not below 100. Thanks!
Result block: condition not met

---

System: HCC1569
Assay: cell number relative to DMSO (% of DMSO); higher = more cells (less growth inhibition / toxicity)
Settings: concentration: 10 µM; 24 h
MEASURED_PARAMETER: cell number
A bare number is all that is needed in reply.

Some entries whose results are on file:
{"COMPOUND": "CC1=C(CC(=O)O)c2cc(F)ccc2C1=Cc1ccc(S(C)=O)cc1 (configuration not stated)", "REPORTED": 103}
{"COMPOUND": "C=CCN1CCc2cc(O)c(O)cc2C(c2ccccc2)C1 (racemic)", "REPORTED": 101}
{"COMPOUND": "CC1=NC(=NNc2ccc(C(=O)[O-])cc2)C(COP(=O)([O-])[O-])=C(C=O)C1=O.[Na+].[Na+].[Na+]", "REPORTED": 101}

Please examine the following record next.
Query block: Enter measured cell number, system HCC1569, for the compound shown: CCCCCCCCCCCCCCCC(O)C(CO)NC(=O)CCCCCCC (configuration not stated) [C8 Dihydroceramide]
Result block: 100

---

System: TDF
Experiment: H1.0 immunofluorescence intensity relative to DMSO (% of DMSO); higher = stronger H1.0 induction, active = 120 or more
Details: concentration: 10 µM; 24 h
MEASURED_PARAMETER: H1.0 immunofluorescence intensity
Reply with just the number.

{"COMPOUND": "OC1C=C2CCN3Cc4cc5c(cc4C(C1O)C23)OCO5 (stereo not drawn)", "H1.0 immunofluorescence intensity": 120}
{"COMPOUND": "CCCCCCCCC=CCCCCCCCCCC(=O)O [11(Z)-Eicosenoic acid]", "H1.0 immunofluorescence intensity": 98.9}
{"COMPOUND": "COc1ccc(CCNCC(O)c2ccc(O)cc2)cc1OC (stereo not drawn) [R(-)-Denopamine]", "H1.0 immunofluorescence intensity": 93.5}
{"COMPOUND": "CCCCCC=CCC=CC=CC=CC(SCC(NC(C)=O)C(=O)O)C(O)CCCC(=O)O (stereo not drawn)", "H1.0 immunofluorescence intensity": 92}

Query block: Look up and report measured H1.0 immunofluorescence intensity for this entry: NC(Cc1cccc(-c2ccccc2CP(=O)(O)O)c1)C(=O)O (stereo not drawn)
Result block: 89.5

Query block: # return recorded H1.0 immunofluorescence intensity for input COc1cc2nc(N3CCN(C(=O)c4ccco4)CC3)nc(N)c2cc1OC.Cl [Prazosin hydrochloride]
Result block: 93.6

Query block: Note down H1.0 immunofluorescence intensity recorded for CCCCCCCCCCCCCCCCCCC(=O)O
Result block: 101

Query block: Identify measured H1.0 immunofluorescence intensity corresponding to O=C(O)C1=CC(=C(c2ccc(O)c(C(=O)O)c2)c2ccc(O)c(C(=O)O)c2)C=CC1=O
Result block: 89.4

---

# H1.0 immunofluorescence intensity values compiled below
System: HCC1569
Experiment: H1.0 immunofluorescence intensity relative to DMSO (% of DMSO); higher = stronger H1.0 induction, active = 140 or more
Details: concentration: 10 µM; 24 h
Form field (numeric): enter value without unit.

Examples from the recorded data:
{"MOLECULE": "Cl.c1ccc(C2CCCC2NC2=NCCCCCCCCCCC2)cc1 (stereo not given) [MDL 12,330A hydrochloride]", "H1.0 immunofluorescence intensity": 88.1}
{"MOLECULE": "COc1ccc2cc(CCC(C)=O)ccc2c1 [Nabumetone]", "H1.0 immunofluorescence intensity": 111}
{"MOLECULE": "COc1ccc(-c2cc(=O)c3c(OC)c(OC)c(OC)cc3o2)cc1OC [Sinensetine]", "H1.0 immunofluorescence intensity": 93.6}
{"MOLECULE": "Cc1cn[nH]c1.Cl [4-Methylpyrazole hydrochloride]", "H1.0 immunofluorescence intensity": 95.4}

Please turn your attention to the following entry.
Query block: Answer with the recorded H1.0 immunofluorescence intensity of COc1ccc2cc(OCC3(C(=O)O)CN(C(=O)c4ccc(F)cc4)C3)ccc2c1 only.
Result block: 95.8

---

Tested on: HCC1569
Assay: cell number relative to DMSO (% of DMSO); higher = more cells (less growth inhibition / toxicity)
Details: concentration: 10 µM; 24 h
Below, each entry is listed alongside its reported cell number.
Give the figure by itself; no unit, no explanation.

Some solved cases for reference:
{"MOLECULE": "COc1ccc(C2OCC3C(c4ccc(OC)c(OC)c4)OCC23)cc1OC (centres undefined)", "cell number": 102}
{"MOLECULE": "NC(C(=O)O)C(O)C(=O)O (racemic) [DL-threo-beta-hydroxyaspartic acid]", "cell number": 101}
{"MOLECULE": "CC(C)(C)c1onc(OCP(=O)(O)O)c1CC(N)C(=O)O (centres undefined)", "cell number": 104}
{"MOLECULE": "CN=C(NC#N)NCCSCc1csc(N=C(N)N)n1", "cell number": 102}

Query block: Specify cell number for CCOC([O-])=Nc1c[n+](N2CCOCC2)no1 and stop.
Result block: 106

Query block: Identify measured cell number corresponding to CCN(CC)CCNC(=O)c1ccc(NC(C)=O)cc1.Cl [N-Acetylprocainamide hydrochloride]
Result block: 104

Query block: Name the recorded cell number of the molecule listed here: CCCCC=CCCCCCCCC(=O)O [9(Z)-Tetradecenoic acid]
Result block: 98.2

Query block: Provide one value: measured cell number of CC(C)=CCC(OC(=O)C=C(C)C)C1=CC(=O)c2c(O)ccc(O)c2C1=O (stereo not drawn) [Shikonin beta,beta-dimethylacrylate]
Result block: 25.4

Query block: Input CC1c2cccc(O)c2C(O)=C2C(=O)C3(O)C(O)=C(C(N)=O)C(=O)C(N(C)C)C3C(O)C21.Cl (centres undefined) [Doxycycline hydrochloride] , output reported cell number.
Result block: 96.5

Query block: Write down cell number measured for item CN1C2CCC1CC(NC(=O)c1nn(C)c3ccccc13)C2.O=C(O)C=CC(=O)O (centres undefined) [LY-278,584 maleate]
Result block: 104

Query block: Report measured cell number; entry is CC1CC=CC=CC=CC=CC(OC2OC(C)C(O)C(N)C2O)CC2OC(O)(CC(O)CC3OC3C=CC(=O)O1)CC(O)C2C(=O)O (centres undefined)
Result block: 106

---

System: HCC1569
Experiment: cell number relative to DMSO (% of DMSO); higher = more cells (less growth inhibition / toxicity)
Conditions: concentration: 10 µM; 24 h
MEASURED_PARAMETER: cell number
When you answer, write just the number.

{"MOLECULE": "Cc1ccc(C(=O)Nc2ccc(S(=O)(=O)[O-])c3cc(S(=O)(=O)[O-])cc(S(=O)(=O)[O-])c23)cc1NC(=O)c1cccc(NC(=O)Nc2cccc(C(=O)Nc3cc(C(=O)Nc4ccc(S(=O)(=O)[O-])c5cc(S(=O)(=O)[O-])cc(S(=O)(=O)[O-])c45)ccc3C)c2)c1.[Na+].[Na+].[Na+].[Na+].[Na+].[Na+] [Suramin hexasodium]", "ASSAYED_SYSTEM": "HCC1569", "cell number": 101}
{"MOLECULE": "CCCc1cc(C(N)=S)ccn1 [Prothionamide]", "ASSAYED_SYSTEM": "HCC1569", "cell number": 106}
{"MOLECULE": "CCCCCC(O)C=CC=CCC=CCCCCCCC(=O)O (stereo not given)", "ASSAYED_SYSTEM": "HCC1569", "cell number": 99.9}
{"MOLECULE": "Cl.NC(=NCc1ccccc1)NC(=O)c1nc(Cl)c(N)nc1N [Benzamil hydrochloride]", "ASSAYED_SYSTEM": "HCC1569", "cell number": 94.7}
{"MOLECULE": "CCn1cc(C(=O)O)c(=O)c2ccc(Cc3ccccc3)nc21 [Amfonelic acid]", "ASSAYED_SYSTEM": "HCC1569", "cell number": 101}

Query block: Give the reported cell number for this molecule. CC[N+](CC)(CC)CCOc1cccc(OCC[N+](CC)(CC)CC)c1OCC[N+](CC)(CC)CC.[I-].[I-].[I-] [Gallamine triethiodide]
Result block: 101

Query block: Please look at this molecule and report its cell number: COc1ccc(CC(=O)NC(N=C(NC#N)Nc2cccc3ncccc23)C(C)(C)C)cc1OC (stereo not given)
Result block: 99.9

Query block: Output cell number of COc1cccc2c1C(=O)c1c(O)c3c(c(O)c1C2=O)CC(O)(C(C)=O)CC3OC1CC(N)C(O)C(C)O1 (stereo not given) [Daunorubicin]
Result block: 53.3
